The measured values listed here are drawn from patent US8188059B2.

# Tested on: rat SGLT2 mRNA
# Protocol notes: Rat SGLT2 mRNA levels in kidney, 1-10-1 and 1-10-2 MOE gapmers, Sprague-Dawley rats (Example 13, Table 63)
# Assay type: in vivo
# Assay context: 50 nmol/kg i.p. twice per week for three weeks
Strand notation (5' to 3'): a small letter for the sugar, then the base; units joined by * are phosphorothioate-linked, units joined directly phosphodiester-linked; [ ] holds rarer units or linkages, { } end groups; capitals alone tell only the bases. e = 2'-O-(2-methoxyethyl) (MOE); [5mC] = 5-methylcytosine; d = 2'-deoxy (DNA)
Attribute measured: % change in SGLT2 expression relative to saline (%)
Please give a number only; it is taken to be in %.

The substance ISIS 370717: SGLT2; TAGCCACCAACT 1-10-1 MOE gapmer, phosphorothioate (sugars from the 5' end e1 d10 e1, all phosphorothioate, methylation of C not given here) showed % change in SGLT2 expression relative to saline equal to −55

The substance ISIS 379699: SGLT2; GGCATGAGCTTC 1-10-1 MOE (antisense eG*dG*d[5mC]*dA*dT*dG*dA*dG*d[5mC]*dT*dT*e[5mC]) showed % change in SGLT2 expression relative to saline equal to −60

The substance ISIS 379692: SGLT2; 1-10-1 MOE gapmer (antisense eT*dG*dT*dT*d[5mC]*d[5mC]*dA*dG*d[5mC]*d[5mC]*d[5mC]*eA) showed % change in SGLT2 expression relative to saline equal to −80

The substance ISIS 382675 (antisense eT*dA*dG*d[5mC]*d[5mC]*dA*d[5mC]*d[5mC]*dA*dA*d[5mC]*eT*eG) showed % change in SGLT2 expression relative to saline equal to −50

The substance ISIS 382677: SGLT2; GGCATGAGCTTCA 1-10-2 MOE (antisense eG*dG*d[5mC]*dA*dT*dG*dA*dG*d[5mC]*dT*dT*e[5mC]*eA) showed % change in SGLT2 expression relative to saline equal to −40
